- assay system: human CD33 P330A (human, UniProt P20138 18-364)
- Sequence (P20138 18-364 P330A limits assumed): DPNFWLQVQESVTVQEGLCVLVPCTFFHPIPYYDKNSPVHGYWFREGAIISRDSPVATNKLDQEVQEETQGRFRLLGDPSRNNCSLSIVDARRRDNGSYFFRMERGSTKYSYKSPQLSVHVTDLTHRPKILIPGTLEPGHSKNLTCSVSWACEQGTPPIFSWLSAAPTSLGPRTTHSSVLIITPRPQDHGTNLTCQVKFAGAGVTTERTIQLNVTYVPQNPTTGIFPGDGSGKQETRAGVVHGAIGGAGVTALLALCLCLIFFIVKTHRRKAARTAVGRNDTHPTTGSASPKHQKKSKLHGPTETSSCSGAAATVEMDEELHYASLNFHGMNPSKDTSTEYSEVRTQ
- procedure text: flow cytometry, alanine scan
This section presents binders with their documented Mean % WT Binding values.

>  <binder>
Refmab #1 (antibody, V domains shown, The alanine scan used IgG or Fab; also called hP67.6) VH: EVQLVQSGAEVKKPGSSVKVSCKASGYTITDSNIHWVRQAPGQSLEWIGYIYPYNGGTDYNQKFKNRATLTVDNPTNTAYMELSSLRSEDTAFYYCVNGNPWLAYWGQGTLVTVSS VL: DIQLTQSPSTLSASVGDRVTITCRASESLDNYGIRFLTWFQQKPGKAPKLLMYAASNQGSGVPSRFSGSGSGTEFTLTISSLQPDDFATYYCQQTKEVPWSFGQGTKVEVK

>  <Mean % WT Binding>
98.6 % of WT

$$$$
>  <binder>
Refmab #2 (antibody, V domains shown, The alanine scan used IgG or Fab) VH: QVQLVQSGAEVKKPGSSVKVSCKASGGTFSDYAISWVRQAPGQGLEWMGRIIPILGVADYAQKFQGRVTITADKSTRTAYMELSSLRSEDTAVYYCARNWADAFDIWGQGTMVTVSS VL: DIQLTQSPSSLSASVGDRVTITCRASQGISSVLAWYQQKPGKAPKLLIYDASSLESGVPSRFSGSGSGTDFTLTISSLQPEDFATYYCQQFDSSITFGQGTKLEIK

>  <Mean % WT Binding>
119 % of WT

$$$$
>  <binder>
Refmab #3 (antibody, V domains shown, The alanine scan used IgG or Fab) VH: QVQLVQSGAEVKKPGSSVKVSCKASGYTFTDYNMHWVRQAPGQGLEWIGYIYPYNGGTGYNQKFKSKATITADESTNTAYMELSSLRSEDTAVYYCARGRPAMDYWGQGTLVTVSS VL: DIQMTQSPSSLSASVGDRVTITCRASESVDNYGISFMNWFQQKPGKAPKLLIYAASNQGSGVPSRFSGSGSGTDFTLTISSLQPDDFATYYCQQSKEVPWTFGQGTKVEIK

>  <Mean % WT Binding>
146 % of WT

$$$$
>  <binder>
Refmab #4 (antibody, V domains shown, The alanine scan used IgG or Fab) VH: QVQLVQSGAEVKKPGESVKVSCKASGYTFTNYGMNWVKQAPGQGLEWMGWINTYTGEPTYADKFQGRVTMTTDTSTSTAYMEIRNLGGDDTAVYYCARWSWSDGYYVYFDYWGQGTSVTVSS VL: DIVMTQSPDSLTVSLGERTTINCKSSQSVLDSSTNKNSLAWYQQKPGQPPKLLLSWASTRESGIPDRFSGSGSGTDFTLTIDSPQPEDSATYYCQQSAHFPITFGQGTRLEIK

>  <Mean % WT Binding>
97.8 % of WT

$$$$
